# assayed-target: Pyridoxal kinase (Homo sapiens)
# Sequence (O00764 whole entry): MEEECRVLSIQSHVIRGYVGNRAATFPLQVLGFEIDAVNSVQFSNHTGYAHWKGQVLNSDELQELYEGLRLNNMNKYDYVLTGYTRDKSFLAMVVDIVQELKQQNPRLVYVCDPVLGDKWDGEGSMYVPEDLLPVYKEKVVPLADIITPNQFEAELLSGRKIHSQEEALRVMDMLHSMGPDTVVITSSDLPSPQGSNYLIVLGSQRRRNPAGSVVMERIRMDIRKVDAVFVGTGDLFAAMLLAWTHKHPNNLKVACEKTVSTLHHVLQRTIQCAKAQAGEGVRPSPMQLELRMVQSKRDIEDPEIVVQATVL
# method-description: Competitive inhibition of pyridoxal phosphokinase (unknown origin)
quantity: Ki (µM)
Quick reminder: number only, in µM, skip the unit.

What Ki value was documented for this compound, C=Cc1c(CO)cnc(C)c1O ? 22.5
